- Tested on: NCI/ADR-RES ovarian
- method: NCI-60 one-dose screen, 48 h (100 = growth as untreated, 0 = no growth, -100 = all killed)
- assay-context: 10 µM
This is part of a sample that, as a whole, favours compounds with a hit. Of some 83,000 tested, about 20% had one in any assay.

>  <compound>
CCCCCC(=O)c1ccc(OCCCN2CCN(C(=O)OCC)CC2)cc1

>  <growth (%)>
83.3

$$$$
>  <compound>
COc1ccc2c(c1)N(CCO)C1=C(C(=O)OC1)C2c1ccccc1 (stereo unspecified)

>  <growth (%)>
-2.83

$$$$
>  <compound>
COC(=O)C(C(C[N+](=O)[O-])c1ccccc1)=P(c1ccccc1)(c1ccccc1)c1ccccc1 (stereo unspecified)

>  <growth (%)>
103

$$$$
>  <compound>
CCN1CCN(c2nc3ccccc3c3c(=O)c4ccccc4sc23)CC1

>  <growth (%)>
37.8

$$$$
>  <compound>
CSc1nc(=O)n(Cc2ccc(F)cc2)c(=O)n1Cc1ccc(C)cc1

>  <growth (%)>
86.6

$$$$
>  <compound>
Cc1cc(O)c(C(C)(C)C)cc1Sc1cc(C(C)(C)C)c(O)cc1C

>  <growth (%)>
30.7

$$$$
>  <compound>
CC(=O)C1CCC2C3CC(F)C4=CC(=O)CCC4(C)C3C(O)CC12C (stereo unspecified)

>  <growth (%)>
94.9

$$$$
>  <compound>
Nc1ccc2c(c1)C1(CCC2)NC(=O)NC1=O (stereo unspecified)

>  <growth (%)>
108

$$$$
>  <compound>
CCCCCCN1CCN(Cc2ccc(N(CC)CC)cc2)C(=O)C1=O

>  <growth (%)>
0.986

$$$$
>  <compound>
O=S(=O)(NCCNc1nccc(-c2c(-c3ccc(F)cc3)nc3sccn23)n1)c1ccc2ccccc2c1

>  <growth (%)>
84.4

$$$$
>  <compound>
COc1cccc(C2C3=C(COC3=O)N(CCO)c3cc(OC)ccc32)c1 (stereo unspecified)

>  <growth (%)>
-12.5

$$$$
>  <compound>
Cc1ccc(NC(=O)Nc2cccnc2)cc1NC(=O)Nc1cccnc1

>  <growth (%)>
87.6

$$$$
>  <compound>
C=C(NC(=O)C(=C)NC(=O)c1csc(C2=NC3c4csc(n4)C4NC(=O)c5csc(n5)C(C(C)(O)C(C)O)NC(=O)C5CSC(=N5)/C(=C/C)NC(=O)C(C(C)O)NC(=O)c5csc(n5)C3(CC2)NC(=O)C(C)NC(=O)C(=C)NC(=O)C(=C)NC(=O)C(C(C)C)NC2C=Cc3c(C(C)O)cc(nc3C2O)C(=O)OC4C)n1)C(N)=O (stereo unspecified)

>  <growth (%)>
77.2

$$$$
>  <compound>
CC/C(=N\N=C(/CC)c1ccc(Br)cc1)c1ccc(Br)cc1

>  <growth (%)>
105

$$$$
>  <compound>
ClC(Cl)(Cl)c1nc2nccnc2[nH]1

>  <growth (%)>
109

$$$$
>  <compound>
C#Cc1ccc(-n2c(/C=C/c3ccc(O)c(OC)c3)nc3ncccc3c2=O)cc1

>  <growth (%)>
109

$$$$
>  <compound>
COc1ccc2c(c1OC)O/C(=C\c1ncc([N+](=O)[O-])n1C)C2=O

>  <growth (%)>
15.1

$$$$
>  <compound>
N#Cc1ncc(Br)c(NC2CCCCCC2)n1

>  <growth (%)>
106

$$$$
>  <compound>
COC(=O)C1(C)Cc2cc(OC(C)=O)c(OC(C)=O)cc2N1 (stereo unspecified)

>  <growth (%)>
80.6

$$$$
>  <compound>
COc1ccc(OC)c(NC(=O)c2sc3nc4c(cc3c2N)C(=O)CCC4)c1

>  <growth (%)>
91

$$$$
>  <compound>
N#CSCC1CC(O)(c2ccccc2)CC(c2ccc(Cl)cc2)O1 (stereo unspecified)

>  <growth (%)>
47.2

$$$$
>  <compound>
COc1ccc(-c2nc3sc(-c4ccccc4)c(-c4ccccc4)n3c2/C=C/C(=O)c2ccccn2)cc1

>  <growth (%)>
85.9

$$$$
>  <compound>
CCC(=O)N1C/C(=C/c2ccc(OC)cc2)C(=O)/C(=C/c2ccc(OC)cc2)C1

>  <growth (%)>
25

$$$$
>  <compound>
Nc1ccc2cc(S(=O)(=O)O)cc(O)c2c1N=Nc1ccc(F)cc1

>  <growth (%)>
99.3

$$$$
>  <compound>
CS(=O)(=O)Nc1ccc(Nc2c3ccccc3nc3cc(N)ccc23)cc1

>  <growth (%)>
96.5

$$$$
>  <compound>
COc1cc(Cl)cc(-c2nn(-c3cccc(NC(=O)c4ccc(Cl)c(Cl)c4)c3)cc2-c2ccncc2)c1

>  <growth (%)>
61.4

$$$$
>  <compound>
CN1c2ccccc2[C@]2(Cc3ccccc3)Cc3ccccc3N[C@H]12

>  <growth (%)>
107

$$$$
>  <compound>
O=C(Nc1ccc(Cl)c([N+](=O)[O-])c1)Nc1nc2ccccc2s1

>  <growth (%)>
80.9

$$$$
>  <compound>
O=C(CSSCC(=O)c1ccc(Cl)cc1)c1ccc(Cl)cc1

>  <growth (%)>
-13

$$$$
>  <compound>
C=C1c2c(C)nn(-c3ccc(OC)cc3)c2N(C)C23C[C@@H]1C1(C)c4c(C)nn(-c5ccc(OC)cc5)c4N(C)C(C)(C[C@H]12)C3 (stereo partly specified)

>  <growth (%)>
35

$$$$
>  <compound>
CCN(CC)CCOc1nc2ccccc2c2c1-c1ccc(OC)cc1C2=O

>  <growth (%)>
-12.8

$$$$
>  <compound>
Oc1[nH]c2cc(Cl)ccc2c1/C=c1/ccc2c(c1)N=C(c1cc(F)cc(F)c1)N=2

>  <growth (%)>
2.67

$$$$
>  <compound>
O=C1Nc2ccc(Cl)cc2/C1=C\c1c(-c2ccc(Cl)cc2)nc2sc(C3CC3)nn12

>  <growth (%)>
45

$$$$
>  <compound>
O=C(CCCCCCC(=O)Nc1cccnc1)NO

>  <growth (%)>
2.65

$$$$
>  <compound>
CC(=O)c1cc(Br)ccc1O

>  <growth (%)>
107

$$$$
>  <compound>
COc1cc(C)ccc1C(=O)c1ccc(C)cc1OC

>  <growth (%)>
-2.71

$$$$

###

- System: RXF 393 renal
- method: NCI-60 one-dose screen, 48 h
- assay-context: 10 µM
Compounds without any hit were thinned out: in the full panel of roughly 83,000, 20% have a hit. The source made the active and inactive calls. Rule for the calls: active = growth percent below 10; inactive = the rest.
Classes used: 1 (active), -1 (inactive)

>  <compound>
Nc1nc(N)c(NC(=O)CNc2ccc(C(=O)O)cc2)c(N)n1

>  <group>
-1

$$$$
>  <compound>
c1ccc(C(NC2CC3CCC2C3)c2ccccc2)cc1 (stereo not drawn)

>  <group>
-1

$$$$
>  <compound>
CC/C(=C(/c1ccc(OCCN(C)C)cc1)c1ccc(OC(=O)CCC(=O)c2c(C)[nH]c(/C=C3\N=C(c4ccc[nH]4)C=C3OC)c2C)cc1)c1ccccc1

>  <group>
-1

$$$$
>  <compound>
CCN(CC)CCOc1nc2cc(OC)c(OC)cc2c2c1-c1ccc(OC)cc1C2=O

>  <group>
-1

$$$$
>  <compound>
Cc1ncc(-c2ccoc2)c(NC2CCCCCC2)n1

>  <group>
-1

$$$$
>  <compound>
CCN1Cc2c(/C=C/c3ccccc3)nc3ccc(OC)cc3c2N(c2cccc(Cl)c2)C1

>  <group>
-1

$$$$
>  <compound>
C[C@@H]1C=C2C(=O)O[C@@H]3CC[C@H](C1)[C@]23O

>  <group>
1

$$$$
>  <compound>
N=C(N)c1ccc(-c2ccc(-c3cccs3)s2)s1

>  <group>
1

$$$$
>  <compound>
CC(=O)N(C)c1ccc(Nc2ccc(Nc3ccc(N(C)C(C)=O)cc3)c3c2C(=O)c2ccccc2C3=O)cc1

>  <group>
-1

$$$$
>  <compound>
COc1ccc(-c2nn(-c3cccc(NC(=O)Nc4cccc(C(F)(F)F)c4)c3)cc2-c2ccncc2)cc1Cl

>  <group>
-1

$$$$
>  <compound>
O=C(O)c1ccc(Cl)cc1Nc1ccc(F)cc1

>  <group>
-1

$$$$
>  <compound>
C#Cc1ccc(-n2c(/C=C/c3ccc(C(F)(F)F)cc3)nc3ncccc3c2=O)cc1

>  <group>
1

$$$$
>  <compound>
O=C1/C(=C\c2ccc(F)cc2)CN(C(=O)c2ccccc2F)C/C1=C\c1ccc(F)cc1

>  <group>
1

$$$$
>  <compound>
CC1(C)OC2=C(CC1Br)C(=O)C(=O)c1ccccc12 (stereo not drawn)

>  <group>
1

$$$$
>  <compound>
S=c1[nH]ccn1-c1c(Cl)cccc1Cl

>  <group>
-1

$$$$
>  <compound>
N#Cc1ncc(Br)c(NC2CCCCCC2)n1

>  <group>
-1

$$$$
>  <compound>
N=C1c2nc3n(c2C(=O)c2nc4n(c21)CCCC4)CCCC3

>  <group>
-1

$$$$
>  <compound>
COc1ccc2c(c1)/C(=C\c1c[nH]c3ccc(OC)cc13)C(=O)N2

>  <group>
-1

$$$$
>  <compound>
COc1ccc(Cn2c(C(N)=O)cc3c2-c2nc(N)ncc2CCC3)cc1

>  <group>
-1

$$$$
>  <compound>
O=C(Nc1cccc(Br)c1)c1cc(=O)[nH]c2ccccc12

>  <group>
-1

$$$$
>  <compound>
COc1ccc2c(c1)N(CCO)C1=C(C(=O)OC1)C2c1ccccc1 (stereo not drawn)

>  <group>
1

$$$$
>  <compound>
COc1cc(Cl)cc(-c2nn(-c3cccc(NC(=O)Nc4ccc(Cl)c(C(F)(F)F)c4)c3)cc2-c2ccncc2)c1

>  <group>
1

$$$$
>  <compound>
O=C(Nc1cccc(Cl)c1)Nc1nccs1

>  <group>
-1

$$$$
>  <compound>
CC1(C)Cc2c(sc3ncn4nc(-c5ccc(O)cc5)nc4c23)CO1

>  <group>
-1

$$$$
>  <compound>
Cc1ccc2oc3nc(C)c(C(=O)NCc4ccccc4)cc3c(=O)c2c1

>  <group>
-1

$$$$
>  <compound>
FC(F)(F)c1ccc(-c2cnc(Cl)nc2N2CCC3(CC2)OCCO3)cc1

>  <group>
-1

$$$$
>  <compound>
CC/C(=C(/c1ccc(OCCN(C)C)cc1)c1ccc(OC(=O)CCCCCCCCC(=O)c2c(C)[nH]c(/C=C3\N=C(c4ccc[nH]4)C=C3OC)c2C)cc1)c1ccccc1

>  <group>
-1

$$$$
>  <compound>
COc1ccc(/C=C2/CN(C(=O)c3ccccc3F)C/C(=C\c3ccc(OC)cc3)C2=O)cc1

>  <group>
-1

$$$$
>  <compound>
Cc1cc(N(CCCNc2ccnc3cc(Cl)ccc23)Cc2ccc3c(c2)OCO3)nc(N2CCOCC2)n1

>  <group>
1

$$$$
>  <compound>
COc1cc(/C=N/NC(=O)c2ccccc2Nc2cccc(C(F)(F)F)c2)cc(OC)c1OC

>  <group>
1

$$$$
>  <compound>
CCN(CC)CCNc1ccc(CO)c2oc3cc(Cl)ccc3c(=O)c12

>  <group>
-1

$$$$
>  <compound>
CN(C)c1ccc(N=C2C=CC(=O)c3ccccc32)cc1

>  <group>
-1

$$$$
>  <compound>
COc1ccc(-c2nc3sccn3c2-c2nc3c([nH]2)C(=O)c2ccccc2C3=O)cc1

>  <group>
-1

$$$$
